# assay comment: activity coefficient (dimensionless); of the first substance listed, at infinite dilution; xn = mol fraction of the nth substance listed
# recorded conditions: 333.35 K; Liquid; Chromatography; x1 = 0
assay endpoint: activity coefficient
Give only the figure.

| compound | numeric result |
| --- | --- |
| CCCCO [butan-1-ol] + CCCC[N+](C)(C)C.O=S(=O)([N-]S(=O)(=O)C(F)(F)F)C(F)(F)F | 2.49 |
| CCCCCC [hexane] + CCCC[N+](C)(C)C.O=S(=O)([N-]S(=O)(=O)C(F)(F)F)C(F)(F)F | 16.3 |
| CC(C)CO [2-methyl-1-propanol] + CCCC[N+](C)(C)C.O=S(=O)([N-]S(=O)(=O)C(F)(F)F)C(F)(F)F | 2.72 |
| c1ccccc1 [benzene] + CCCC[N+](C)(C)C.O=S(=O)([N-]S(=O)(=O)C(F)(F)F)C(F)(F)F | 1.26 |

Now, please, on to the next compound.
In: Query activity coefficient for CCCO [propan-1-ol] + CCCC[N+](C)(C)C.O=S(=O)([N-]S(=O)(=O)C(F)(F)F)C(F)(F)F
Out: 1.9

====

# assay comment: activity coefficient (dimensionless); of the first substance listed, at infinite dilution; xn = mol fraction of the nth substance listed
# recorded conditions: 312.15 K; Liquid; Chromatography; x1 = 0
# maps each entry to its activity coefficient
Write no unit; give the number alone.

| molecule | activity coefficient |
| --- | --- |
| CC(C)(C)O [2-methylpropan-2-ol] + CCCC[N+](C)(C)C.O=S(=O)([N-]S(=O)(=O)C(F)(F)F)C(F)(F)F | 2.01 |

In: Look up and state reported activity coefficient for CCCCCCCCCC [decane] + CCCC[N+](C)(C)C.O=S(=O)([N-]S(=O)(=O)C(F)(F)F)C(F)(F)F
Out: 87.5

In: Quickly give me recorded activity coefficient for CCCCO [butan-1-ol] + CCCC[N+](C)(C)C.O=S(=O)([N-]S(=O)(=O)C(F)(F)F)C(F)(F)F
Out: 3.22

In: Provide measured activity coefficient value, entry: CCCCCCCCC [nonane] + CCCC[N+](C)(C)C.O=S(=O)([N-]S(=O)(=O)C(F)(F)F)C(F)(F)F
Out: 59.8

In: Tell us which activity coefficient value is on record for ClC(Cl)Cl [trichloromethane] + CCCC[N+](C)(C)C.O=S(=O)([N-]S(=O)(=O)C(F)(F)F)C(F)(F)F
Out: 1.04

In: Report activity coefficient for CCCCCCC [heptane] + CCCC[N+](C)(C)C.O=S(=O)([N-]S(=O)(=O)C(F)(F)F)C(F)(F)F
Out: 27.7

In: Answer with reported activity coefficient of CC(C)O [propan-2-ol] + CCCC[N+](C)(C)C.O=S(=O)([N-]S(=O)(=O)C(F)(F)F)C(F)(F)F
Out: 2.14

====

# assay comment: activity coefficient (dimensionless); of the first substance listed, at infinite dilution; xn = mol fraction of the nth substance listed
# recorded conditions: 312.35 K; Liquid; Chromatography; x1 = 0
assay endpoint: activity coefficient
Write no unit; give the number alone.

| molecule | activity coefficient |
| --- | --- |
| CCCCCC [hexane] + CCCC[N+](C)(C)C.O=S(=O)([N-]S(=O)(=O)C(F)(F)F)C(F)(F)F | 18.1 |
| C=CCCCC [hex-1-ene] + CCCC[N+](C)(C)C.O=S(=O)([N-]S(=O)(=O)C(F)(F)F)C(F)(F)F | 9.81 |
| CN1CCCC1=O [N-methylpyrrolidone] + CCCC[N+](C)(C)C.O=S(=O)([N-]S(=O)(=O)C(F)(F)F)C(F)(F)F | 112 |

Read the next record carefully.
In: Complete the entry with activity coefficient for C=CCCC [1-pentene] + CCCC[N+](C)(C)C.O=S(=O)([N-]S(=O)(=O)C(F)(F)F)C(F)(F)F
Out: 5.79
